Listed here: items and their measured Kd.
target: GABARAP (recombinant, BLI) (human, UniProt O95166 1-117); assay: BLI
Ends that are not written are not given here.
REPORTED_ENDPOINT: Kd (nM)

{"BINDER": "NISQKSDEEDFVKIEDLPLKLTIY (also: biotin, position not given here) [PCM1 V1958I LIR peptide]", "REPORTED_ENDPOINT": "Kd", "NUMERIC_RESULT": 1500}
{"BINDER": "TDYRPPDDAVFDIITDEELCQIQE (24-mer limits inferred: 10 residues on each side of the core FDII (1280-1283), as in the arrays; exact peptide is in Supplementary Table 2. N- or C-terminal biotin if used in BLI, cellulose-bound if in the array) [FYCO1 WT LIR peptide]", "REPORTED_ENDPOINT": "Kd", "NUMERIC_RESULT": 1700}
{"BINDER": "NISQKSDEEDFVKVTDLPLKLTIY (also: biotin, position not given here) [PCM1 E1959T LIR peptide (BLI)]", "REPORTED_ENDPOINT": "Kd", "NUMERIC_RESULT": 3100}
{"BINDER": "NISQKSDEEDFDKVEDLPLKLTIY (also: biotin, position not given here) [PCM1 V1956D LIR peptide]", "REPORTED_ENDPOINT": "Kd", "NUMERIC_RESULT": 7700}
{"BINDER": "NISQKSDEEDFVIVEDLPLKLTIY (also: biotin, position not given here) [PCM1 K1957I LIR peptide (BLI)]", "REPORTED_ENDPOINT": "Kd", "NUMERIC_RESULT": 170}
{"BINDER": "NISQKSDEEDFDIIEDLPLKLTIY (also: biotin, position not given here) [PCM1 FDII LIR peptide (BLI)]", "REPORTED_ENDPOINT": "Kd", "NUMERIC_RESULT": 1400}
